Target: canine TRPM8 (Canis lupus familiaris)
Test: In Vitro Canine TRPM8 Functional Assay (Ca2+ fluorescence, icilin activation)
Type: cell-based
Settings: HEK293 cells stably expressing canine TRPM8; icilin activation; eight-point dose-response; read-out: IC50
observedProperty: IC50 (nM)
Give just the numeric value; nM need not be written.

State its IC50 for this compound: "Cc1c(N(Cc2ccc(F)c(C(F)(F)F)c2)S(=O)(=O)c2cccnc2N(C)C)sc2ccccc12"
12

State its IC50 for this compound: "CC(C)(O)c1c(N(Cc2ccc(OC(F)(F)F)cc2)S(=O)(=O)c2ccc(Br)cc2)sc2ccccc12"
26.8

State its IC50 for this compound: "O=C(O)c1ccc(S(=O)(=O)N(CCN2CCOCC2)c2sc3ccccc3c2Br)cc1"
39

State its IC50 for this compound: "O=S(=O)(c1ccccc1)N(Cc1cccc(F)c1)c1cc2ccccc2s1"
35

State its IC50 for this compound: "O=S(=O)(c1cccc(-c2nnn[nH]2)c1)N(Cc1ccc(F)c(C(F)(F)F)c1)c1sc2ccccc2c1Br"
19.1

State its IC50 for this compound: "CC(=O)CCCN(c1sc2ccccc2c1Br)S(=O)(=O)c1ccccc1"
27.3

State its IC50 for this compound: "CNc1ccc(S(=O)(=O)N(CCC2CC2)c2sc3ccccc3c2Cl)cc1"
16.1

State its IC50 for this compound: "O=S(=O)(c1ccccc1)N(Cc1ccccc1F)c1sc2ccccc2c1Br"
11.4

State its IC50 for this compound: "O=c1[nH]c(-c2ccc(S(=O)(=O)N(CCCC(F)(F)F)c3cc4ccccc4s3)cc2)no1"
21

State its IC50 for this compound: "CC(=O)Nc1c(N(Cc2ccc(F)c(C(F)(F)F)c2)S(=O)(=O)c2ccccc2)sc2ccccc12"
32

State its IC50 for this compound: "CNCc1c(N(Cc2ccc(F)c(C(F)(F)F)c2)S(=O)(=O)c2ccccc2)sc2ccccc12"
62

State its IC50 for this compound: "CCCCN(c1cc2ccccc2s1)S(=O)(=O)c1ccc(-c2nnn[nH]2)cc1"
88

State its IC50 for this compound: "O=C(O)c1ccc(S(=O)(=O)N(CCCC(F)(F)F)c2sc3ccccc3c2Cl)cc1"
8.2

State its IC50 for this compound: "O=C(O)c1ccc(S(=O)(=O)N(Cc2ccc(F)c(C(F)(F)F)c2)c2sc3ccccc3c2Cl)cc1"
1.8

State its IC50 for this compound: "CS(=O)(=O)N(Cc1ccc(F)c(F)c1)c1sc2ccccc2c1CO"
14

State its IC50 for this compound: "CC(=O)c1ccc(S(=O)(=O)N(Cc2ccc(F)c(C(F)(F)F)c2)c2sc3ccccc3c2C(C)(C)O)cc1"
10

State its IC50 for this compound: "COc1cccc(S(=O)(=O)N(Cc2ccc(F)c(C(F)(F)F)c2)c2sc3ccccc3c2Cl)c1"
43

State its IC50 for this compound: "Cc1c(N(Cc2ccc(F)c(F)c2)S(=O)(=O)c2cccs2)sc2ccccc12"
2.8

State its IC50 for this compound: "O=C(O)c1ccc(S(=O)(=O)N(CCCCC(F)(F)F)c2sc3ccccc3c2Br)cc1"
3

State its IC50 for this compound: "CCN(CC)c1ccc(S(=O)(=O)N(CCC2CC2)c2sc3ccccc3c2C)cc1"
23.2

State its IC50 for this compound: "Cc1c(N(CCN2CCOCC2)S(=O)(=O)c2ccccc2)sc2ccccc12"
6

State its IC50 for this compound: "CS(=O)(=O)Nc1ccc(S(=O)(=O)N(Cc2ccc(F)c(C(F)(F)F)c2)c2sc3ccccc3c2Br)cc1Br"
14.1

State its IC50 for this compound: "O=S(=O)(c1ccccc1)N(Cc1ccc(F)cc1)c1sc2ccccc2c1Br"
2

State its IC50 for this compound: "CC(=O)C1=C(N(Cc2ccc(F)c(C(F)(F)F)c2)S(=O)(=O)c2ccccc2)S(=O)(=O)c2ccccc21"
8

State its IC50 for this compound: Cc1c(N(CCC2CC2)S(=O)(=O)c2ccc(C3=NOS(=O)N3)cc2)sc2ccccc12 (centres unmarked)
14.6

State its IC50 for this compound: "O=C(Nc1ccc(S(=O)(=O)N(Cc2ccc(F)c(C(F)(F)F)c2)c2sc3ccccc3c2Br)cc1)C(F)(F)F"
17

State its IC50 for this compound: "Cc1c(N(Cc2ccc(OC(F)(F)F)cc2)S(=O)(=O)c2cccc3cccnc23)sc2ccccc12"
15

State its IC50 for this compound: "Cc1c(N(CCCCC(F)(F)F)S(=O)(=O)c2cnccc2N2CCOCC2)sc2ccccc12"
25.9

State its IC50 for this compound: "CS(=O)(=O)Nc1ccc(S(=O)(=O)N(CCC(F)(F)F)c2sc3ccccc3c2Br)cc1Br"
25.8

State its IC50 for this compound: "CCCCCCN(c1sc2ccccc2c1Br)S(=O)(=O)c1ccccc1"
8.3

State its IC50 for this compound: "Cc1c(N(CCC(F)(F)F)S(=O)(=O)c2ccc(-c3nsc(=O)[nH]3)cc2)sc2ccccc12"
12.2

State its IC50 for this compound: "CCS(=O)(=O)N(Cc1ccc(F)c(C(F)(F)F)c1)c1sc2ccccc2c1C=O"
8

====

Target: UniProt:Q1A7N1
Test: In Vitro Canine TRPM8 Functional Assay (Ca2+ fluorescence, icilin activation)
Type: cell-based
Settings: HEK293 cells stably expressing canine TRPM8; icilin activation; eight-point dose-response; read-out: IC50
observedProperty: IC50
The answer should read as a number with its unit following.

State its IC50 for this compound: "CCS(=O)(=O)N(Cc1ccc(F)c(F)c1)c1sc2ccccc2c1C=O"
11.4 nM

State its IC50 for this compound: "CC(C)(C)OC(=O)N1CCC(CN(c2sc3ccccc3c2Cl)S(=O)(=O)c2ccccc2)CC1"
21 nM

State its IC50 for this compound: "Cc1c(N(Cc2ccc(F)c(F)c2)S(=O)(=O)c2cccnc2)sc2ccccc12"
6 nM

State its IC50 for this compound: "O=Cc1c(N(Cc2ccc(F)c(C(F)(F)F)c2)S(=O)(=O)c2ccccc2)sc2ccccc12"
16 nM

State its IC50 for this compound: "O=C(O)c1ccc(S(=O)(=O)N(CC2CC2)c2sc3ccccc3c2Br)cc1"
18 nM

State its IC50 for this compound: "O=C(O)c1ccc(S(=O)(=O)N(CCC2CC2)c2sc3ccccc3c2Br)cc1"
5 nM

State its IC50 for this compound: "Cc1c(N(CCCC(F)(F)F)S(=O)(=O)c2ccc(C(C)(C)O)cc2)sc2ccccc12"
9 nM

State its IC50 for this compound: "COc1ccc(S(=O)(=O)N(Cc2ccc(F)c(C(F)(F)F)c2)c2sc3ccccc3c2C)cc1F"
19 nM

====

Consider the following molecules; for each one, report its IC50.
Biological target: canine TRPM8 (Canis lupus familiaris)
Assay: TRPM8 Patch Clamp Assays (whole-cell, menthol or cold activation)
Assay type: cell-based
Details: menthol stimulation
Give just the numeric value; nM need not be written.

State its IC50 for this molecule: "Cc1c(N(Cc2ccc(F)c(C(F)(F)F)c2)S(=O)(=O)c2ccc(C(=O)O)cc2)sc2ccccc12"
1.1

State its IC50 for this molecule: "Cc1c(N(Cc2ccc(OC(F)(F)F)cc2)S(=O)(=O)c2ccc(C(=O)O)cc2)sc2ccccc12"
0.183

====

Consider the following compounds; for each one, report its IC50.
Molecular target: canine TRPM8 (Canis lupus familiaris, UniProt Q1A7N1)
Sequence (Q1A7N1 1-1104): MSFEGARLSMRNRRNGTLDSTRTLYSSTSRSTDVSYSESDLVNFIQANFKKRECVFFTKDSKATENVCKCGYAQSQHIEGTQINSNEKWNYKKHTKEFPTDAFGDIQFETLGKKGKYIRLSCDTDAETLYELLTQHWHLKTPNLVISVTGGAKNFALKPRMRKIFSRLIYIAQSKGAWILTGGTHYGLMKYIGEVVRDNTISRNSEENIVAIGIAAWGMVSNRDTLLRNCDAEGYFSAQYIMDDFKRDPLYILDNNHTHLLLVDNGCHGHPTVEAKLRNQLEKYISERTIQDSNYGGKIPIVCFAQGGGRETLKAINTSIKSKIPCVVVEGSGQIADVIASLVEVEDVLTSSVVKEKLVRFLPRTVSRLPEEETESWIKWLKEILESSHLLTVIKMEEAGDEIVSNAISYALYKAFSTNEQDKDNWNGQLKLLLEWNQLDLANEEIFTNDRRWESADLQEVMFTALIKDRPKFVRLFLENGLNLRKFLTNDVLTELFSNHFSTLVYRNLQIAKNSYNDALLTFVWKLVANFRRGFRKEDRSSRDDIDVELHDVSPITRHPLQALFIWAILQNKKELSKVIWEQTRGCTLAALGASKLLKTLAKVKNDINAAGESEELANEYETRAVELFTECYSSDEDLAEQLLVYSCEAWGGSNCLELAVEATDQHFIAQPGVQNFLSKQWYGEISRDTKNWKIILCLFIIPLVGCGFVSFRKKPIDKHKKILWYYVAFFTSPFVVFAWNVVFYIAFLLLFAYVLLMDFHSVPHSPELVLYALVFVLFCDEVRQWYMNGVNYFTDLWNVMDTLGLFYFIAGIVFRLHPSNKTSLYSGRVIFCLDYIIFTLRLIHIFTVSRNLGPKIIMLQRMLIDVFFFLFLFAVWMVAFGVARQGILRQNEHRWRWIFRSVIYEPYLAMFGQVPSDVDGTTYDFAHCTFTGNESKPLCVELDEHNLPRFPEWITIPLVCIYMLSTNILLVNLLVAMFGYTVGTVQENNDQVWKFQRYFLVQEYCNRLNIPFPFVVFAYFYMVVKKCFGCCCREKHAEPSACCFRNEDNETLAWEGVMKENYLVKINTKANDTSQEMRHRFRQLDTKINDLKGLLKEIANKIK
Assay: In Vitro Canine TRPM8 Functional Assay (Ca2+ fluorescence, icilin activation)
Type: cell-based
Details: HEK293 cells stably expressing canine TRPM8; icilin activation; eight-point dose-response; read-out: IC50

State its IC50 for this compound: CC(=O)c1c(N(Cc2ccc(F)c(F)c2)S(=O)(=O)c2ccccc2)sc2ccccc12 [Compound 204]
0.006 µM

State its IC50 for this compound: CS(=O)(=O)Nc1c(Cl)cc(S(=O)(=O)N(CCCCC(F)(F)F)c2sc3ccccc3c2Cl)cc1Cl [Compound 682]
0.0317 µM

State its IC50 for this compound: CCCCN(c1sc2ccccc2c1C(C)=O)S(=O)(=O)CC [Compound 121]
0.035 µM

State its IC50 for this compound: CCCCN(c1sc2ccccc2c1C(C)(C)O)S(=O)(=O)c1ccc(C(C)(C)O)cc1 [Compound 341]
0.014 µM

====

Target: UniProtKB Q1A7N1
Assay: In Vitro Canine TRPM8 Functional Assay (Ca2+ fluorescence, icilin activation)
Type: cell-based
Conditions: HEK293 cells stably expressing canine TRPM8; icilin activation; eight-point dose-response; read-out: IC50
observedProperty: pIC50
The value called pIC50 is obtained by taking minus log10 of the concentration in mol/L.

Find the measured pIC50 of CN(C)C(=O)c1c(N(Cc2ccc(F)c(C(F)(F)F)c2)S(=O)(=O)c2ccccc2)sc2ccccc12 [Compound 457] with UniProtKB Q1A7N1 as test system.
7.33

Find the measured pIC50 of Cc1c(N(Cc2cccc3cccnc23)S(=O)(=O)c2ccc3ncccc3c2)sc2ccccc12 [Compound 32] with UniProtKB Q1A7N1 as test system.
7.43

Find the measured pIC50 of CCCCN(c1sc2ccccc2c1Cl)S(=O)(=O)c1ccccc1 [Compound 83] with UniProtKB Q1A7N1 as test system.
7.32

Find the measured pIC50 of Cc1nc(O)nc(O)c1S(=O)(=O)N(Cc1ccc(F)c(C(F)(F)F)c1)c1sc2ccccc2c1C [Compound 72] with UniProtKB Q1A7N1 as test system.
7.59

Find the measured pIC50 of CC#CCCN(c1sc2ccccc2c1Br)S(=O)(=O)c1ccccc1 [Compound 251] with UniProtKB Q1A7N1 as test system.
7.41

Find the measured pIC50 of CC(O)c1c(N(Cc2ccc(F)c(F)c2)S(C)(=O)=O)sc2ccccc12 (stereo not shown) [Compound 225] with UniProtKB Q1A7N1 as test system.
8.40

Find the measured pIC50 of CC(O)c1c(N(Cc2ccc(F)c(C(F)(F)F)c2)S(C)(=O)=O)sc2ccccc12 (stereo not shown) [Compound 224] with UniProtKB Q1A7N1 as test system.
9.00

Find the measured pIC50 of Cc1c(N(Cc2ccc(F)c(F)c2)S(=O)(=O)c2cccc(O)c2)sc2ccccc12 [Compound 286] with UniProtKB Q1A7N1 as test system.
8.15

Find the measured pIC50 of Cc1c(N(Cc2cccc(OC(F)(F)F)c2)S(=O)(=O)CCCn2ccnc2)sc2ccccc12 [Compound 778] with UniProtKB Q1A7N1 as test system.
6.97

Find the measured pIC50 of CC(C)(C)OC(=O)NCCN(c1sc2ccccc2c1Cl)S(=O)(=O)c1ccccc1 [Compound 86] with UniProtKB Q1A7N1 as test system.
7.28

Find the measured pIC50 of CC(C)c1c(N(Cc2ccc(F)c(C(F)(F)F)c2)S(=O)(=O)c2ccccc2)sc2ccccc12 [Compound 547] with UniProtKB Q1A7N1 as test system.
8.13

Find the measured pIC50 of Cc1c(N(Cc2ccc(F)c(C(F)(F)F)c2)S(=O)(=O)CCCC(=O)O)sc2ccccc12 [Compound 765] with UniProtKB Q1A7N1 as test system.
7.87

Find the measured pIC50 of Cc1c(N(Cc2ccc3c(c2)OCO3)S(=O)(=O)c2ccc(C(=O)O)cc2)sc2ccccc12 [Compound 523] with UniProtKB Q1A7N1 as test system.
8.70

Find the measured pIC50 of CC(=O)c1c(N(Cc2ccc(F)c(C(F)(F)F)c2)S(=O)(=O)c2ccc(Br)cc2)sc2ccccc12 [Compound 386] with UniProtKB Q1A7N1 as test system.
7.89

Find the measured pIC50 of COC(=O)CS(=O)(=O)N(Cc1ccc(OC(F)(F)F)cc1)c1sc2ccccc2c1C [Compound 761] with UniProtKB Q1A7N1 as test system.
7.40

Find the measured pIC50 of CCCCN(c1sc2ccccc2c1Br)S(=O)(=O)c1ccc(-c2nnn[nH]2)cc1 [Compound 428] with UniProtKB Q1A7N1 as test system.
8.00

Reference source for all entries: patent US9434711B2
